Just for reference, ChEMBL document CHEMBL1201862 is where these values come from.

System: NCI-H522
Assay: NCI tumour cell line growth inhibition, 48 h
Active and inactive are the calls of the source. Rule as the data show it: active = GI50 up to about 1.1 µM and inactive = higher.
OBSERVATION_TYPE: GI50

Example cases with answers are listed next.
| COMPOUND | OBSERVATION_TYPE | MEASURED_RESULT |
| --- | --- | --- |
| NC(=O)c1ncn2c1CNC(=O)C2 | GI50 | > 100 µM (inactive) |
| COc1ccc(-n2c(C)nc3ccc(/N=C/c4ccccc4)cc3c2=O)cc1 | GI50 | > 100 µM (inactive) |
| CCNCC(=O)Nc1ccc2c(c1)C(=O)c1ccc(NC(=O)CNCC)cc1C2=O | GI50 | 1.87 µM (inactive) |

Record GI50 for all entries; do not skip any.
1. CCCCOP1(=O)C=C(C)C(=C(Cl)Cl)C(C)=C1 (centres undefined)
2. Cc1ccc(/C=C/C(=N/NC(=O)N/N=C(/C=C/c2ccc(C)cc2)C(C)(C)CN2CCCCC2)C(C)(C)CN2CCCCC2)cc1
3. CN(CCCn1ccnc1[N+](=O)[O-])CCCn1ccnc1[N+](=O)[O-]
4. CCCCCCCCCCCCCCCCOC[C@H](COC(c1ccccc1)(c1ccccc1)c1ccccc1)O[PH](=S)OC (some centres undefined)
5. COc1ccc2c(c1)CC[C@@H]1C2CC[C@]2(C)C(=C=CP(=O)(O)O)CCC12 (some centres undefined)
6. O=C1C=C(Nc2ccccc2C(=O)CC(=O)C(=O)Nc2cccc([N+](=O)[O-])c2)c2ccccc2C1=O

A.
5.45 µM (inactive)
1.63 µM (inactive)
> 100 µM (inactive)
> 100 µM (inactive)
> 100 µM (inactive)
21.8 µM (inactive)

---

Tested on: HCC 2998
Assay: NCI tumour cell line growth inhibition, 48 h
Active and inactive are the calls of the source. Rule as the data show it: active = GI50 up to about 1.1 µM and inactive = higher.
A correct response names exactly one class from active, inactive

| COMPOUND | TARGET_OR_SYSTEM | CLASS |
| --- | --- | --- |
| O=c1[nH]nc(Cc2ccccc2)n1CCO | HCC 2998 | inactive |
| CC(C#N)NCc1ccc(C(C)NC(C)C#N)cc1 (configuration not stated) | HCC 2998 | inactive |

Q. Per the records of this test, what outcome belongs to CC(N)Cc1ccc(F)cc1 (configuration not stated) ?
A. inactive

Q. Per the records of this test, what outcome belongs to O=c1cc(-c2ccccc2)oc2c(-c3cc(Cl)cc4c(=O)cc(-c5ccccc5)oc34)cc(Cl)cc12 ?
A. inactive

Q. Per the records of this test, what outcome belongs to CC1(C)CCC[C@@]2(C)C1CC[C@H]1CC(O)C3(C)CCC12C3 (some centres not stated) ?
A. inactive

Q. Per the records of this test, what outcome belongs to Clc1ccc(OCc2nnc(COc3ccc(OCc4nnc(COc5ccc(Cl)cc5Cl)o4)c(Cl)c3)o2)c(Cl)c1 ?
A. inactive

Q. Per the records of this test, what outcome belongs to CC(=O)SC(C[N+](=O)[O-])c1ccc2c(c1)OCO2 (configuration not stated) ?
A. inactive

Q. Per the records of this test, what outcome belongs to CC(NC1=CC(=O)c2ncccc2C1=O)C(O)c1ccccc1 (configuration not stated) ?
A. inactive

Q. Per the records of this test, what outcome belongs to CC(=O)OCC12CCC3C4(C)CCCC(C)(C)C4CCC3(C)C1CC(C1=CC(=O)OC1O)O2 (configuration not stated) ?
A. inactive

Q. Per the records of this test, what outcome belongs to c1ccc2c(c1)CCN1CCc3c([nH]c4ccccc34)C21 (configuration not stated) ?
A. inactive

Q. Per the records of this test, what outcome belongs to O=c1[nH]nc2c3n[nH]c(=O)n3c3ccccc3n12 ?
A. inactive

Q. Per the records of this test, what outcome belongs to COc1cc2c(cc1O)CCN(C)[C@H]2Cc1ccc(Oc2c(O)c(OC)cc3c2C[C@H]2c4c(c(OC)c(OC)c(OC)c4-3)CCN2C)cc1 [THALIFABERIDINE] ?
A. inactive
